- System: Saccharomyces cerevisiae
- assay.text: protein stability index of tFT-peptide fusion (C-terminal peptide) (PSI (0-1 scale)); higher = more stable (slower turnover)
- details: genetic background: wild type; temperature: 30 C
property: protein stability index
// no unit, no text: just the number

// solved cases for protein stability index follow
{"polymer.sequence": "TCDGSCRRGDLR", "property": "protein stability index", "recorded.result": 0.663}
{"polymer.sequence": "PPSSPPPASHRP", "property": "protein stability index", "recorded.result": 0.691}
{"polymer.sequence": "RYNRMVERALKY", "property": "protein stability index", "recorded.result": 0.677}
{"polymer.sequence": "ALPRFPATSFPT", "property": "protein stability index", "recorded.result": 0.695}
{"polymer.sequence": "RWLEIQKRRGRI", "property": "protein stability index", "recorded.result": 0.643}
{"polymer.sequence": "VCGLCGGFMGLA", "property": "protein stability index", "recorded.result": 0.69}
{"polymer.sequence": "FRFTSSPVFSWL", "property": "protein stability index", "recorded.result": 0.708}
{"polymer.sequence": "LGWDGSRRRPGL", "property": "protein stability index", "recorded.result": 0.727}

Measured protein stability index, `SELKNKKRKHAK` : 0.706

Entry `LRGVAIAARYPR` ; protein stability index = 0.766

====

The entries below are paired with their reported protein stability index.
- Test system: Saccharomyces cerevisiae
- assay.text: protein stability index of tFT-peptide fusion (C-terminal peptide) (PSI (0-1 scale)); higher = more stable (slower turnover)
- details: genetic background: wild type; temperature: 30 C

Solved cases below.
{"polymer.sequence": "TFAALRVFSFLS", "protein stability index": 0.666}
{"polymer.sequence": "VFRLLALLWRFF", "protein stability index": 0.325}
{"polymer.sequence": "CQRDYLFKSRLP", "protein stability index": 0.639}
{"polymer.sequence": "VAHSPLPLILPI", "protein stability index": 0.629}
{"polymer.sequence": "FGVLLLFLFFLP", "protein stability index": 0.413}

The measured protein stability index associated with `ASSGGCVPTLPL` reads 0.68

Summary for this sequence, `REVIGFLSYWKG` : protein stability index is 0.711

protein stability index for `FVRWCFGRRVLG` is 0.619

Field protein stability index (entry `QAYGFEDISFSI` ) reads 0.808

Reported protein stability index for `LRCNAQSMICLT` was 0.633

The sequence listed as `LFLFSSAGYPNS` shows protein stability index equal to 0.661

Query `MSFFPCVFSGFG` yields protein stability index of 0.738

Data point: `VFLRVGAPPVRI` ; protein stability index = 0.586

protein stability index recorded for this sequence, `NMYQQIESEYSK` , is 0.676

Field protein stability index (entry `LVEEGKKLTSKF` ) reads 0.711

Recorded result, `RPVSALESPQAG` , protein stability index: 0.727

protein stability index for `CVLGWCSLIAWC` is 0.284

Reported protein stability index for `SPHPLPRPTTRP` was 0.708

Consider `SRPFLPPSPRPA` . Its measured protein stability index is 0.757

====

- Test system: Saccharomyces cerevisiae;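 note: PSI is a weighted mean of sequencing reads over stability bins, variants kept only with over 10 reads, mCherry proximal and sfGFP distal, peptide attached via GGGS linker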
- assay.text: protein stability index of tFT-peptide fusion (C-terminal peptide) (PSI (0-1 scale)); higher = more stable (slower turnover)
- details: genetic background: wild type; temperature: 30 C
property: protein stability index
Answer with a bare number; do not write a unit.

Use the examples below as a reference point.
{"polymer.sequence": "LRPLQPCGLIQC", "protein stability index": 0.52}
{"polymer.sequence": "RSVWVGGVTNLG", "protein stability index": 0.657}
{"polymer.sequence": "PPHPPPPAPLPS", "protein stability index": 0.73}
{"polymer.sequence": "FLRGSSKSISAR", "protein stability index": 0.677}
{"polymer.sequence": "SGRGANGVPGGE", "protein stability index": 0.602}
{"polymer.sequence": "PTWGRSDESKAM", "protein stability index": 0.744}
{"polymer.sequence": "PLSPAPPRPPPP", "protein stability index": 0.621}
{"polymer.sequence": "TFLCSSLALAVI", "protein stability index": 0.405}

Sample `DLLLGDCGVGWF` ; protein stability index observed: 0.647

Item: `LVLDVLDLRRHC` | protein stability index: 0.649

Summary for this sequence, `LSLTCLSSPPPA` : protein stability index is 0.654

Form field protein stability index, entry `VVPVGLYSVILV` : 0.427
